# Measured target: T1, human CD19 (human, UniProt P15391 20-556)
# T1 construct: CD19 as expressed on Raji, NALM-6 and SU-DHL-6 cells; also called CD19 antigen; B-cell surface antigen B4
# T1 sequence: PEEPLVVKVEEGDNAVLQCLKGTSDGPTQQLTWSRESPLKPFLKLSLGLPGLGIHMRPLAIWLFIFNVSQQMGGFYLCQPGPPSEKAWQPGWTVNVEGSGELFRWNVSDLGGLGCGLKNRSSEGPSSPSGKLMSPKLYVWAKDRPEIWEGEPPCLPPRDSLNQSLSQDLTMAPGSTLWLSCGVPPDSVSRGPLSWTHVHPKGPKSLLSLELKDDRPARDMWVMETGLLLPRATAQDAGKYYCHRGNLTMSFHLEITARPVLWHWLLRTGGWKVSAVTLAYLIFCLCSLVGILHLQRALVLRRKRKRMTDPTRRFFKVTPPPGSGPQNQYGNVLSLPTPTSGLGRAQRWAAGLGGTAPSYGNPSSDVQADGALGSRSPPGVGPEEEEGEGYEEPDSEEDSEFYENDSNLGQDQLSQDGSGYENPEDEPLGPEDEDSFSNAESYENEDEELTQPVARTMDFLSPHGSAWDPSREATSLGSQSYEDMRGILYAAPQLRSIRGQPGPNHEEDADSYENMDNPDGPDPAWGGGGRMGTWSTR
# Protocol notes: flow cytometry on Raji cells, PE-labelled anti-human secondary antibody, MFI against antibody concentration
Measured endpoint: binding result

Ask | Find the measured binding result of VH16/VL44 (antibody, human IgG1, V domains shown) VH: QVQLVQSGGGVVQPGRSLRLSCAASGVSLPDYGVSWVRQAPGKGLEWVAVIWGSETTYYNSALKSRFTISRDNSKNTLYLQMNSLRAEDTAVYYCARHYYYGGSYAMDYWGQGTLVTVSS VL: DIVMTQSPSSMSASIGDRVTITCRASQDISKYLNWYQQKPGKAPNLLIYHTSRLHSGVPSRFSGSGSGTEFTLTISSLQPEDFATYYCQQGNTLPYTFGQGTKLEIKR and report it.
Reply | binds

Ask | Quick one: give measured binding result for VH20/VL39 (antibody, human IgG1, V domains shown) VH: QVQLVQSGGGLVQPGGSLRLSCVASGVSLPDYGVSWVRQAPGKGLEWVSVIWGSETTYYNSALKSRFTISRDNAKNSLYLQMNSLRAEDTAVYYCARHYYYGGSYAMDYWGQGTLVTVSS VL: DIVMTQSPSTLSASVGDRVTITCRASQDISKYLNWYQQKPGKAPKLLIYHTSRLHSGVPSRFSGSGSGTEFTLTISSLQPDDFATYYCQQGNTLPYTFGQGTKVEIKR
Reply | binds
